# TARGET: T1, human ASGR-1 (wild type) (human, UniProt P07306 1-291)
# T1 construct: also called wt ASGR1; huASGR-1
# T1 sequence: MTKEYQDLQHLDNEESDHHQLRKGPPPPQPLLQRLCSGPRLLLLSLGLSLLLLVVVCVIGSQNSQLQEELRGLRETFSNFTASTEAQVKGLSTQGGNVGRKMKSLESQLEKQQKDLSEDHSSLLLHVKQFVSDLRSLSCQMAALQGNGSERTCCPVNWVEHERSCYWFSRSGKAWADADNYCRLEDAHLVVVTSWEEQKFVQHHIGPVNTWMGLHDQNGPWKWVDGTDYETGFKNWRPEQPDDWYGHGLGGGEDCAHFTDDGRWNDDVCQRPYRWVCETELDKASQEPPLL
# ASSAY OVERVIEW: FACS, transfected CHO-S cells, mAb 5 ug/ml
Recorded FACS Binding Geomean for the following binders
Field format: numeric only.

Here's what some known entries look like.
# BINDER, NUMERIC RESULT
measured = [
    ("147E9 (antibody, V domains shown, mAb) VH: EVQLVESGGGLVQPGGSLRLSCAASGFTFSSYSMNWVRQAPGKGLEWVSSISGRNTTIYYADSVKGRFTISRDNAKNSLYLQMNSLRDEDTAVYYCSRDRGSCWGQGTLVTVSS VL: DIQMTQSPSSLSASVGDRVTITCRASQDINNYLAWFQQKPGKAPKSLIVAASSLQSGVPSKFSGSGSGTDFTLTISSLQPEDFATYYCQQYNSYPLTFGGGTKVEIK", 40200),
    ("59F2 (antibody, V domains shown, mAb) VH: EVQLVESGGGLVQPGGSLRLSCGASGFTFSSYSMNWVRQAPGKGLEWVSYISGSSNIIYYTDSVKGRFTISRDNAKNSLYLQMNSLRDEDTAVYYCARADTPMVLYFYGMDVWGQGTTVTVSS VL: SYELTQPPSVSVSPGQTASITCSGDKLGDKYASWYQQRPGQSPVLVIYQDNKRPSGIPERFSGSNSGNTATLTISGTQAMDEADYYCQAWDNNTVVFGGGTKLTVL", 27900),
    ("175F4 (antibody, V domains shown, mAb) VH: QVQLQQSGPGLVKPSQTLSLTCAISGDSVSSNSAAWNWIRQSPSRGLEWLGRTYYRSKWYNAYPVSMESRISINPDTSKNQFSLQLNSVTPEDTAVYYCARDKAAGRNDFYYYGMDVWGQGTTVTVSS VL: QSALTQPASVSGSPGQSITISCTGTSSDVGRFNLVSWYQQHPGYAPKLMIYEVSKRPSGVSNRFSGSKSGNTASLTISGLQAEDEADYYCCSYAGSSTYVVFGGGTKLTVL", 33600),
    ("10G6 (antibody, V domains shown, mAb) VH: QVQLVQSGAEVKKPGASVKVSCKASGYTFTAYHMHWVRQAPGQGLEWMGWINPNNNGTNYAQKFQGRVTMTRDTSISTAYMELSRLRSDDTAVYYCGRDVTSSFDYWGQGTLVTVSS VL: DIQMTQSPSSVSASVGDRVTITCRASQGISKWLAWYQQKPGKAPKILIYAAYSLQSGVPARFSGSGSGTDFTLTIRSLQPEDFATYYCQQANSFPFTFGPGTKVDIK", 43100),
]

Give the measured FACS Binding Geomean for 32D6 (antibody, V domains shown, mAb) VH: QVQLVESGGGVVQPGRSLRLSCAASGFTFSSYGMHWVRQAPGKGLEWVTVIWHDGSNAYYADSVKGRFTISRDNSKNTLYLQMNSLRAEDTAVYYCARENSSSYYFDYWGQGTLVTVSS VL: DIQMTQSPSSLSTSVGDRVTITCRASQNIISYLNWYQQKPGKAPKLLMYVASRLQSGVPSRFSGSGSGTDFTLTISSLQAEDFATYYCQQSYSTPYTFGGGTKVAIK
36100

Give the measured FACS Binding Geomean for 75G3 (antibody, V domains shown, mAb) VH: QVQLQQWGAGLLKPSETLSLTCAVYGGSLSGSYWSWIRQPPGKGLEWIGEINLSGSTNYNPSLKSRVTISVDTSKSQFSLTLRSVTAADTAVYYCARDYGGLDYWGQGTLVTVSS VL: EIVLTQSPGTLSLSPGERATLSCRARQNVDSSYLAWYQQKPGQAPRLLIYGASSRATGIPDRFSGSGSGTDFTLTISRLEPEDFAVFYCQQYERSPWTFGQGTKVEIK
37200
